Every entry's value here was drawn from ChEMBL document CHEMBL1201862.

Test system: NCI/ADR-RES
EXPERIMENTAL_PROTOCOL: NCI tumour cell line growth inhibition, 48 h
The source made the active and inactive calls. No stated cut-off is given here; in the data, active = GI50 up to about 1.1 µM and inactive = higher.
Outcomes: label 1 (active), label 0 (inactive)

- COMPOUND: "CC(C)(C)c1ccc(-c2nc3ccc(Cl)cc3c(=O)o2)cc1"
  SYSTEM_NAME: "NCI/ADR-RES"
  CLASS_ASSIGNMENT: "label 0"
- COMPOUND: "COc1ccc(/C=C2\\CN(C)CC3=C2OC(N)=C(C#N)C3c2ccc(OC)cc2)cc1 (stereo unspecified)"
  SYSTEM_NAME: "NCI/ADR-RES"
  CLASS_ASSIGNMENT: "label 0"
- COMPOUND: "Nc1cc2nc(O)c(O)nc2cc1N"
  SYSTEM_NAME: "NCI/ADR-RES"
  CLASS_ASSIGNMENT: "label 0"
- COMPOUND: "COC1C=COC2(C)Oc3c(C)c(O)c4c(c3C2=O)/C(=N/C2CCC(O)OC2C)C=C(NC(=O)/C(C)=C\\C(=O)C2CC2C(O)C(C)C(O)C(C)C(OC(C)=O)C1C)C4=O (stereo unspecified)"
  SYSTEM_NAME: "NCI/ADR-RES"
  CLASS_ASSIGNMENT: "label 0"
- COMPOUND: "COc1ccc(/C=C\\c2cc(OC)c(OC)c(OC)c2)cc1OP(=O)(O)O"
  SYSTEM_NAME: "NCI/ADR-RES"
  CLASS_ASSIGNMENT: "label 1"
- COMPOUND: "Cc1cc(C)c(S(=O)(=O)N2CCCN(S(=O)(=O)c3c(C)cc(C)cc3C)OCCCON(S(=O)(=O)c3c(C)cc(C)cc3C)CCCN(S(=O)(=O)c3c(C)cc(C)cc3C)OCCCO2)c(C)c1"
  SYSTEM_NAME: "NCI/ADR-RES"
  CLASS_ASSIGNMENT: "label 0"
- COMPOUND: "CC(C)(C)C(=O)C(C#N)C(=O)C(C)(C)C"
  SYSTEM_NAME: "NCI/ADR-RES"
  CLASS_ASSIGNMENT: "label 0"
- COMPOUND: "C[C@@H](c1ccccc1)n1c(N)c(C#N)c2ccc([N+](=O)[O-])cc2c1=O"
  SYSTEM_NAME: "NCI/ADR-RES"
  CLASS_ASSIGNMENT: "label 0"
- COMPOUND: "CCOC(=O)/C(C#N)=C/c1ccnc2ccccc12"
  SYSTEM_NAME: "NCI/ADR-RES"
  CLASS_ASSIGNMENT: "label 0"
- COMPOUND: "N#Cc1cnc(N)nc1NCC1(CO)CC(CCc2ccccc2)C1 (stereo unspecified)"
  SYSTEM_NAME: "NCI/ADR-RES"
  CLASS_ASSIGNMENT: "label 0"
- COMPOUND: "COc1ccccc1C(O)[C@@H]1C[C@@H]2[C@H]3CC[C@@](C)([C@@H]2O1)C3(C)C (stereo partly specified)"
  SYSTEM_NAME: "NCI/ADR-RES"
  CLASS_ASSIGNMENT: "label 0"
- COMPOUND: "Cc1ccc(NC(=S)NNC(=O)c2cc(-c3ccccc3)nc3ccccc23)cc1"
  SYSTEM_NAME: "NCI/ADR-RES"
  CLASS_ASSIGNMENT: "label 0"
- COMPOUND: "N#CC(=N)c1ncn(-c2ccc(N)cc2)c1N"
  SYSTEM_NAME: "NCI/ADR-RES"
  CLASS_ASSIGNMENT: "label 0"
- COMPOUND: "NCS(=O)(=O)O"
  SYSTEM_NAME: "NCI/ADR-RES"
  CLASS_ASSIGNMENT: "label 0"
- COMPOUND: "COC(=O)C(Cc1ccccc1)NP(=O)(O)OCC1OC(n2cc(Br)c(=O)[nH]c2=O)CC1O (stereo unspecified)"
  SYSTEM_NAME: "NCI/ADR-RES"
  CLASS_ASSIGNMENT: "label 0"
- COMPOUND: "O=c1[nH]c(=O)n(C2CC(O)C(CO)O2)cc1OC/C=C/Cc1ccccc1 (stereo unspecified)"
  SYSTEM_NAME: "NCI/ADR-RES"
  CLASS_ASSIGNMENT: "label 0"
- COMPOUND: "c1ccc2oc(-c3ccc(-c4nc5ccccc5o4)c4c3CC4)nc2c1"
  SYSTEM_NAME: "NCI/ADR-RES"
  CLASS_ASSIGNMENT: "label 0"
- COMPOUND: "COc1cccc(NC(=O)c2c(N)n[nH]c2SC)c1"
  SYSTEM_NAME: "NCI/ADR-RES"
  CLASS_ASSIGNMENT: "label 0"
- COMPOUND: "CC(C)N(/C(F)=N\\C(=O)Nc1ccccc1C(F)(F)F)C(C)C"
  SYSTEM_NAME: "NCI/ADR-RES"
  CLASS_ASSIGNMENT: "label 0"
- COMPOUND: "CC(=O)Nc1ccc(-c2nc3ccccc3s2)cc1Cl"
  SYSTEM_NAME: "NCI/ADR-RES"
  CLASS_ASSIGNMENT: "label 0"
- COMPOUND: "COC(=O)c1ccc(C)cc1CC1Cc2cccc(C)c2C1=O (stereo unspecified)"
  SYSTEM_NAME: "NCI/ADR-RES"
  CLASS_ASSIGNMENT: "label 0"
- COMPOUND: "CC1=CC(C)(C)Nc2ccc(CSc3ccccc3)cc21"
  SYSTEM_NAME: "NCI/ADR-RES"
  CLASS_ASSIGNMENT: "label 0"
- COMPOUND: "C=CCN1C(=O)/C(=C/c2ccccc2)N=C1SC/C=C/C"
  SYSTEM_NAME: "NCI/ADR-RES"
  CLASS_ASSIGNMENT: "label 0"
- COMPOUND: "COc1ccc(CCNC(=O)CCCCCO)cc1OC"
  SYSTEM_NAME: "NCI/ADR-RES"
  CLASS_ASSIGNMENT: "label 0"
- COMPOUND: "CNC(=S)NNc1ncnc2c1c(-c1ccc(Cl)cc1)cn2-c1ccc(C)cc1"
  SYSTEM_NAME: "NCI/ADR-RES"
  CLASS_ASSIGNMENT: "label 0"
- COMPOUND: "Cc1nc2c(Br)cc(Br)cc2c(=O)n1-c1ccccc1NC1OC(CO)C(O)C(O)C1O (stereo unspecified)"
  SYSTEM_NAME: "NCI/ADR-RES"
  CLASS_ASSIGNMENT: "label 0"
- COMPOUND: "CC[C@@H]1CC[C@@H]2[C@H](CC[C@]3(C)[C@@H](O)CC[C@@H]23)[C@H]1C(=O)O"
  SYSTEM_NAME: "NCI/ADR-RES"
  CLASS_ASSIGNMENT: "label 0"
- COMPOUND: "CCOC(=O)C(NC(=O)CC)(Nc1ccc(F)cc1F)C(F)(F)F (stereo unspecified)"
  SYSTEM_NAME: "NCI/ADR-RES"
  CLASS_ASSIGNMENT: "label 0"
- COMPOUND: "CCOC(=O)C1CCC(=O)N1C(=O)c1ccccc1 (stereo unspecified)"
  SYSTEM_NAME: "NCI/ADR-RES"
  CLASS_ASSIGNMENT: "label 0"
- COMPOUND: "O=[As]O"
  SYSTEM_NAME: "NCI/ADR-RES"
  CLASS_ASSIGNMENT: "label 0"
- COMPOUND: "COC(=O)c1cc(-c2c[nH]cc2C(=O)OCc2ccccc2)cn1S(=O)(=O)c1ccc(C)cc1"
  SYSTEM_NAME: "NCI/ADR-RES"
  CLASS_ASSIGNMENT: "label 0"
- COMPOUND: "Cc1ccc(NC(S)=Nc2c(C)n(C)n(-c3ccccc3)c2=O)cc1"
  SYSTEM_NAME: "NCI/ADR-RES"
  CLASS_ASSIGNMENT: "label 0"
- COMPOUND: "COc1c(-c2cc(C)c(Cl)c(=O)[nH]2)c(O)c(OC)c2occc12"
  SYSTEM_NAME: "NCI/ADR-RES"
  CLASS_ASSIGNMENT: "label 0"
- COMPOUND: "N#Cc1sc2c(c1OC(=O)c1ccc(Cl)cc1Cl)c(=O)n(-c1ccccc1)c(=S)n2-c1ccccc1"
  SYSTEM_NAME: "NCI/ADR-RES"
  CLASS_ASSIGNMENT: "label 0"
- COMPOUND: "CN(C)CCNC1=CC(=O)c2c(O)ccc(O)c2C1=O"
  SYSTEM_NAME: "NCI/ADR-RES"
  CLASS_ASSIGNMENT: "label 0"
- COMPOUND: "Nc1ccc(-c2ccc(Nc3cc(S(=O)(=O)O)c(N)c4c3C(=O)c3ccccc3C4=O)cc2)c(S(=O)(=O)O)c1"
  SYSTEM_NAME: "NCI/ADR-RES"
  CLASS_ASSIGNMENT: "label 0"
- COMPOUND: "O=C(CC(C(=O)c1ccsc1)c1cccs1)c1ccsc1 (stereo unspecified)"
  SYSTEM_NAME: "NCI/ADR-RES"
  CLASS_ASSIGNMENT: "label 0"
- COMPOUND: "O=C(c1ccc([N+](=O)[O-])cc1)C(Br)C(Br)c1ccnc2ccccc12 (stereo unspecified)"
  SYSTEM_NAME: "NCI/ADR-RES"
  CLASS_ASSIGNMENT: "label 0"
- COMPOUND: "Cn1c(=O)c(Br)c(C=O)n(CCO[N+](=O)[O-])c1=O"
  SYSTEM_NAME: "NCI/ADR-RES"
  CLASS_ASSIGNMENT: "label 0"
- COMPOUND: "CC(C)(C)c1cc(-c2ccc(-c3cc(C(C)(C)C)c(O)c(C(C)(C)C)c3)cc2)cc(C(C)(C)C)c1O"
  SYSTEM_NAME: "NCI/ADR-RES"
  CLASS_ASSIGNMENT: "label 0"
- COMPOUND: "Cc1c(-c2ccccc2)n(C)c2cn[nH]c(=O)c12"
  SYSTEM_NAME: "NCI/ADR-RES"
  CLASS_ASSIGNMENT: "label 0"
